Hello, the source for this data is patent US4904673A, in case you need it.

Target: muscarinic receptors in heart (Rattus norvegicus)
Construct: The whole heart was cut up with scissors
Sequence (P10980 1-466): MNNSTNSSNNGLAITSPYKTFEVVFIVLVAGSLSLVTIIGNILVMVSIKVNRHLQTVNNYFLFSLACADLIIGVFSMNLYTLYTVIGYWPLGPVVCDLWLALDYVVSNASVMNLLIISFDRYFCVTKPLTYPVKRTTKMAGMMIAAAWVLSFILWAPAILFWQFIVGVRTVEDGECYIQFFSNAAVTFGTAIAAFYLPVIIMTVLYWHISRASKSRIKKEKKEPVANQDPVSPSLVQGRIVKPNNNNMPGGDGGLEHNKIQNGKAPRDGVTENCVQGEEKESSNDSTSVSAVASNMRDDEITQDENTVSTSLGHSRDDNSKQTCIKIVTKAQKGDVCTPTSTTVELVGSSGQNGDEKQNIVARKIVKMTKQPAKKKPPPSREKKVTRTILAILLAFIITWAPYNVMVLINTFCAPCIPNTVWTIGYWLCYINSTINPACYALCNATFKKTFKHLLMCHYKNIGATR
Experiment: Receptor binding test in vitro, 3H-NMS displacement, whole heart homogenate
Conditions: rat whole heart homogenate 1:400; 0.3 nanomolar 3H-NMS; 30° C., 45 minutes; read-out: Receptor Binding Tests IC50 Heart
pIC50: −log10 of the molar value.

molecule: CCN(CCCC(=O)N1CCC(C(=O)N(C)C)CC1)C(C)Cc1ccc(OC)cc1 (racemic)
pIC50: 8.00
